Organism: Rattus norvegicus
Protocol Description: Open TG-GATES - Regimen: Daily Repeat
Type: toxicity, organism-based, Sprague-Dawley
Parameters: regimen Daily Repeat, gender Male, age 6 weeks
Particulars: in vivo, po, 1000 mg/kg, 72 h, tissue Plasma, route gavage, dose level High, time 3 day
Consider the following compounds; for each one, report its Cl.
Report as a plain number; the unit meq/L is understood.

*Q* Suppose we examine the compound CNC(=C[N+](=O)[O-])NCCSCc1ccc(CN(C)C)o1 ; what Cl value has been reported?
*A* 103.6

*Q* Given the entry COC(=O)C1=C(C)NC(C)=C(C(=O)OC)C1c1ccccc1[N+](=O)[O-] , report its measured Cl.
*A* 107.8

*Q* I'd like to know its Cl. The compound in question is CN/C(=N/CCSCc1nc[nH]c1C)NC#N
*A* 102.8

* * *

Species: Rattus norvegicus
Protocol Description: Open TG-GATES - Regimen: Single
Format: toxicity, organism-based, Sprague-Dawley
Parameters: regimen Single, gender Male, age 6 weeks
Particulars: in vivo, po, 100 mg/kg, 24 h, tissue Blood, route gavage, dose level Low
Experimental Readout: Neu (%)
# value in %; strip the unit string

*Q* // Neu lookup, key: COC(=O)C1=C(C)NC(C)=C(C(=O)OC)C1c1ccccc1[N+](=O)[O-]
*A* 29

*Q* Entry CN/C(=N/CCSCc1nc[nH]c1C)NC#N : reported Neu = ?
*A* 14.8

*Q* Quick one: Neu for CNC(=C[N+](=O)[O-])NCCSCc1ccc(CN(C)C)o1 ?
*A* 15.2

* * *

Species: Rattus norvegicus
Protocol Description: Open TG-GATES - Regimen: Daily Repeat
Type: toxicity, organism-based, Sprague-Dawley
Parameters: regimen Daily Repeat, gender Male, age 6 weeks
Particulars: in vivo, po, 0 mg/kg, […], tissue Blood, route gavage, dose level Control, time 7 day
Give measured MCHC for each item. Keep answers brief.
I only need the number, in %, no unit after it.

*Q* Quick one: MCHC of NC1=NC(=O)C(c2ccccc2)O1 (stereo not drawn) ?
*A* 34.4

*Q* For the compound Cc1nnc2n1-c1ccc(Cl)cc1C(c1ccccc1Cl)=NC2 , what MCHC is on record?
*A* 33.7

*Q* Returns the measured MCHC for the input compound. Input: CNC(=C[N+](=O)[O-])NCCSCc1ccc(CN(C)C)o1
*A* 35.3

*Q* Query: MCHC; subject: Brc1ccccc1
*A* 34.5

*Q* Which value of MCHC has been reported for CN1C(=O)CCS(=O)(=O)C1c1ccc(Cl)cc1 (stereo not drawn) in the records?
*A* 33.9

*Q* Entry O=C(OC[C@H]1O[C@@H](OC(=O)c2cc(O)c(O)c(OC(=O)c3cc(O)c(O)c(O)c3)c2)[C@H](OC(=O)c2cc(O)c(O)c(OC(=O)c3cc(O)c(O)c(O)c3)c2)[C@@H](OC(=O)c2cc(O)c(O)c(OC(=O)c3cc(O)c(O)c(O)c3)c2)[C@@H]1OC(=O)c1cc(O)c(O)c(OC(=O)c2cc(O)c(O)c(O)c2)c1)c1cc(O)c(O)c(OC(=O)c2cc(O)c(O)c(O)c2)c1 : reported MCHC = ?
*A* 33.5

*Q* # lookup: MCHC of CN/C(=N/CCSCc1nc[nH]c1C)NC#N
*A* 33.5

*Q* Dear colleague, I am looking for the recorded MCHC of the following compound: CN(C)CCC(c1ccc(Cl)cc1)c1ccccn1 (stereo not drawn)
*A* 32.4

*Q* Return reported MCHC; argument: CC(C)NNC(=O)c1ccncc1
*A* 35.7

*Q* Quick one: MCHC of CCOc1ccc(NC(C)=O)cc1 ?
*A* 33.8

*Q* Bench note: what MCHC did COC(=O)C1=C(C)NC(C)=C(C(=O)OC)C1c1ccccc1[N+](=O)[O-] show?
*A* 32.7

*Q* I am curious: what MCHC value has been reported for CCCc1cc(=O)[nH]c(=S)[nH]1 ?
*A* 33.6

*Q* What value of measured MCHC is listed for Nc1c2c(nc3ccccc13)CCCC2 ?
*A* 35.2

* * *

Species: Rattus norvegicus
Protocol Description: Open TG-GATES - Regimen: Single
Format: toxicity, organism-based, Sprague-Dawley
Set-up: regimen Single, gender Male, age 6 weeks
Particulars: in vivo, po, 1000 mg/kg, 6 h, tissue Plasma, route gavage, dose level High
Experimental Readout: CRE (mg/dL)
Just the number in mg/dL, nothing appended.

*Q* What value of CRE has been recorded for this entry: CN/C(=N/CCSCc1nc[nH]c1C)NC#N
*A* 0.4

*Q* May I ask what CRE has been recorded for O=C(OC[C@H]1O[C@@H](OC(=O)c2cc(O)c(O)c(OC(=O)c3cc(O)c(O)c(O)c3)c2)[C@H](OC(=O)c2cc(O)c(O)c(OC(=O)c3cc(O)c(O)c(O)c3)c2)[C@@H](OC(=O)c2cc(O)c(O)c(OC(=O)c3cc(O)c(O)c(O)c3)c2)[C@@H]1OC(=O)c1cc(O)c(O)c(OC(=O)c2cc(O)c(O)c(O)c2)c1)c1cc(O)c(O)c(OC(=O)c2cc(O)c(O)c(O)c2)c1 ?
*A* 0.4

*Q* Suppose we examine the compound CNC(=C[N+](=O)[O-])NCCSCc1ccc(CN(C)C)o1 ; what CRE value has been reported?
*A* 0.4

*Q* Given Cc1nnc2n1-c1ccc(Cl)cc1C(c1ccccc1Cl)=NC2 , state its recorded CRE.
*A* 0.1

*Q* Param item = COC(=O)C1=C(C)NC(C)=C(C(=O)OC)C1c1ccccc1[N+](=O)[O-] ; retrieve measured CRE.
*A* 0.2

* * *

Organism: Rattus norvegicus
Protocol Description: Open TG-GATES - Regimen: Daily Repeat
Format: toxicity, organism-based, Sprague-Dawley
Set-up: regimen Daily Repeat, gender Male, age 6 weeks
Particulars: in vivo, po, 0 mg/kg, 72 h, tissue Plasma, route gavage, dose level Control, time 3 day
Experimental Readout: BUN
Give the value; after it, write the unit.

*Q* Looking for the measured BUN of CN1C(=O)CCS(=O)(=O)C1c1ccc(Cl)cc1 (stereo not given) [CHLORMEZANONE] , can you help?
*A* 14.6 mg/dL

*Q* Need BUN of CN(C)CCC(c1ccc(Cl)cc1)c1ccccn1 (stereo not given) [CHLORPHENIRAMINE] , thanks.
*A* 14.6 mg/dL

*Q* What does the data say about its BUN? Entry: Nc1c2c(nc3ccccc13)CCCC2 [TACRINE]
*A* 17.4 mg/dL

*Q* Look up BUN for this molecule: CN/C(=N/CCSCc1nc[nH]c1C)NC#N [CIMETIDINE]
*A* 14.4 mg/dL

*Q* Look up BUN: COC(=O)C1=C(C)NC(C)=C(C(=O)OC)C1c1ccccc1[N+](=O)[O-] [NIFEDIPINE]
*A* 14 mg/dL

* * *

Give measured gamma-GTP for each item. Keep answers brief.
Species on record: Rattus norvegicus
Protocol Description: Open TG-GATES - Regimen: Single
Format: toxicity, organism-based, Sprague-Dawley
Parameters: regimen Single, gender Male, age 6 weeks
Particulars: in vivo, po, 0 mg/kg, 9 h, tissue Plasma, route gavage, dose level Control
Express the result in IU/L but write the number alone.

*Q* If you can, please state the reported gamma-GTP value of CN1C(=O)CCS(=O)(=O)C1c1ccc(Cl)cc1 (centres undefined) .
*A* 1

*Q* Value lookup for gamma-GTP; key = CCCc1cc(=O)[nH]c(=S)[nH]1
*A* 2.2

*Q* Please look up its gamma-GTP: CCOc1ccc(NC(C)=O)cc1
*A* 1.2

*Q* Would you kindly share the measured gamma-GTP for Brc1ccccc1 ?
*A* 1.4

*Q* For COC(=O)C1=C(C)NC(C)=C(C(=O)OC)C1c1ccccc1[N+](=O)[O-] , what is its reported gamma-GTP?
*A* 1.2

*Q* Item CNC(=C[N+](=O)[O-])NCCSCc1ccc(CN(C)C)o1 has what recorded gamma-GTP?
*A* 1.2

*Q* So what's the measured gamma-GTP for this one? Cc1nnc2n1-c1ccc(Cl)cc1C(c1ccccc1Cl)=NC2
*A* 1.2

*Q* Which measured gamma-GTP value corresponds to O=C(OC[C@H]1O[C@@H](OC(=O)c2cc(O)c(O)c(OC(=O)c3cc(O)c(O)c(O)c3)c2)[C@H](OC(=O)c2cc(O)c(O)c(OC(=O)c3cc(O)c(O)c(O)c3)c2)[C@@H](OC(=O)c2cc(O)c(O)c(OC(=O)c3cc(O)c(O)c(O)c3)c2)[C@@H]1OC(=O)c1cc(O)c(O)c(OC(=O)c2cc(O)c(O)c(O)c2)c1)c1cc(O)c(O)c(OC(=O)c2cc(O)c(O)c(O)c2)c1 ?
*A* 2.6

*Q* For the molecule shown here, NC1=NC(=O)C(c2ccccc2)O1 (centres undefined) , give the reported gamma-GTP.
*A* 1.6

*Q* Look at this molecule and give its reported gamma-GTP. CN(C)CCC(c1ccc(Cl)cc1)c1ccccn1 (centres undefined)
*A* 1.2

*Q* Returns the measured gamma-GTP for the input molecule. Input: CS(=O)(=O)O.Cc1ccc(NC(=O)c2ccc(CN3CCN(C)CC3)cc2)cc1Nc1nccc(-c2cccnc2)n1 [IMATINIB MESYLATE]
*A* 0.8

*Q* Which gamma-GTP is reported for this molecule? CC(C)NNC(=O)c1ccncc1
*A* 1.2

*Q* # get_value(readout='gamma-GTP', item= Nc1c2c(nc3ccccc13)CCCC2 )
*A* 1

*Q* Form field: reported gamma-GTP of CN/C(=N/CCSCc1nc[nH]c1C)NC#N
*A* 1.4

// provenance: ChEMBL document CHEMBL3885861
